Target: human adenosine A2A receptor (Homo sapiens (Human), UniProt P29274)
Sequence (P29274 whole entry): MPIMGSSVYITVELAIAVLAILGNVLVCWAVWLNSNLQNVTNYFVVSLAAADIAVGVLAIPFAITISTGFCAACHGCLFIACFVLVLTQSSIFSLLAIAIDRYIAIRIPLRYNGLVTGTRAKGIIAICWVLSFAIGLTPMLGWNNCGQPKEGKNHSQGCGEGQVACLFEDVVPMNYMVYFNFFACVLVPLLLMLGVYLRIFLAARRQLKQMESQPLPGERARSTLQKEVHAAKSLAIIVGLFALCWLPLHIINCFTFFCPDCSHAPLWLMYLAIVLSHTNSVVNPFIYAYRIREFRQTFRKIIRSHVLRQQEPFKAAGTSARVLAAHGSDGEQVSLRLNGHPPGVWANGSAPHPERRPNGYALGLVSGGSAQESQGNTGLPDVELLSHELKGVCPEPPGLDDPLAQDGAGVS
Assay: Adenosine receptor inhibition binding assay, [3H]ZM241385, HEK293 A2A receptor membranes
Settings: 1 nM [3H]ZM241385, HEK293-hA2A membranes, 25° C., 1 h; Ki from IC50 by Cheng-Prusoff
Recorded A2A pKi, one value per entry.

COMPOUND | RECORDED_VALUE
Cc1cc(-c2c(-c3ccccc3)nc(N)n3c(=O)n(C[C@@H]4C[C@@H](F)CN4)nc23)cc(C)n1 | 8.4

**Query** May I ask what A2A pKi has been recorded for Cc1cc(-c2c(-c3ccccc3)nc(N)n3c(=O)n(C(CN)C4CCOC4)nc23)cc(C)n1 (stereo not shown) ?
**Result** 7.5

**Query** May I ask what A2A pKi has been recorded for Cc1cc(-c2c(-c3ccccc3)nc(N)n3c(=O)n(Cc4nnc(C)o4)nc23)cc(C)n1 ?
**Result** 8.2

**Query** May I ask what A2A pKi has been recorded for Cc1cc(-c2c(-c3ccc(F)cc3)nc(N)n3c(=O)n(Cc4nccn4C)nc23)cc(CO)n1 ?
**Result** 9.5
